Hey, just so you know, these numbers are from patent US9067898B1.

Quick reference: log10 of EC50 of the listed items.
Target: Human GPR120 short form (Homo sapiens)
Construct: expressed in transfected cells
Sequence (Q5NUL3 1-361): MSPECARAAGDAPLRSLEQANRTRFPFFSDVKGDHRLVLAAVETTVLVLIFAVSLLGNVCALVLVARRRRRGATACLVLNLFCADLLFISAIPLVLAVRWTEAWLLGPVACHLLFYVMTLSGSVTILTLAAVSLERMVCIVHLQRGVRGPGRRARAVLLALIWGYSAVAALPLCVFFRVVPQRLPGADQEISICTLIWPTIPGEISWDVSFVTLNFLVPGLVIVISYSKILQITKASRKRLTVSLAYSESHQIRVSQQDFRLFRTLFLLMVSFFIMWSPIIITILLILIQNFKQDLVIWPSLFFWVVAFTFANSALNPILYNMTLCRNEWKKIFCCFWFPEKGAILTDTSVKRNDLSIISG
Experiment: Human GPR120 calcium flux assay (FLIPR), Procedure Calcium B
Assay type: cell-based
Conditions: HEK-293 cells expressing human GPR120 short form, 4200 cells/well; read-out: GPR120 Ca2+ Assay B EC50
Log scale reminder: EC50 in nM, then log10 taken.

For orientation, consider the following solved cases.
| Compound | log10 of EC50 |
| --- | --- |
| Cc1ccc(-c2snc(Cl)c2COc2ccc(CCC(=O)O)c(C(C)(F)F)c2)cc1 | 2.78 |
| COc1cc(OCc2c(Cl)nsc2-c2ccc(C)cc2F)ccc1CCC(=O)O | 2.32 |
| COc1ccc(-c2nsc(C(F)(F)F)c2COc2c(F)cc(CCC(=O)O)cc2F)nc1 | 2.38 |

Next up:
stdin: Given the entry COc1ncc(-c2nsc(C(F)(F)F)c2COc2ccc(CCC(=O)O)c(C)c2C)s1 , report its measured log10 of EC50.
stdout: 2.67

====

Biological target: Human GPR120 short form (Homo sapiens)
Construct: expressed in transfected cells
Sequence (Q5NUL3 1-361): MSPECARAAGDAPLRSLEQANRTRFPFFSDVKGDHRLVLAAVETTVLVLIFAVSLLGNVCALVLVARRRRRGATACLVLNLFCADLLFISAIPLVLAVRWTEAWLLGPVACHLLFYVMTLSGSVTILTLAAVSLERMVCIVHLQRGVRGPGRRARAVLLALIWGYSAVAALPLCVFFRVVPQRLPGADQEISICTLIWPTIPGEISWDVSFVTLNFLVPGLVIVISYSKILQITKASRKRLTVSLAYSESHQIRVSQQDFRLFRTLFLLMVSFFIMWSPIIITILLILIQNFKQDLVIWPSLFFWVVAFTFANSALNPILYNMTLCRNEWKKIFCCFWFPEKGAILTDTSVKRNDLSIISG
Assay: Human GPR120 calcium flux assay (FLIPR), Procedure Calcium A
Assay type: cell-based
Conditions: HEK-293 cells expressing human GPR120 short form, 2500 cells/well; read-out: GPR120 Ca2+ Assay A EC50
Hi! Just check whether EC50 is below 100 nM. Below gives satisfied, equal or above gives not satisfied.

| Molecule | Group label |
| --- | --- |
| Cc1c(CCC(=O)O)ccc(OCc2c(Cl)nsc2-c2ccc(F)cc2)c1C [Cpd 154] | not satisfied |
| CCc1ccc(-c2nsc(C(F)(F)F)c2COc2c(F)cc(CCCO)cc2F)cc1 [Cpd 135] | not satisfied |
| OCCCc1ccc(OCc2c(Cl)nsc2-c2ccc(Cl)cc2)c(F)c1F [Cpd 102] | satisfied |
| CCc1ccc(-c2nsc(C(F)(F)F)c2COc2ccc(CCCO)c(F)c2F)cc1 [Cpd 139] | not satisfied |

stdin: Report whether reported EC50 is lower than 100 nM (strictly) for CCc1ccc(-c2nsc(C(F)(F)F)c2COc2c(F)cc(CC(C)C(=O)O)cc2F)cc1F (centres unmarked) [Cpd 212]
stdout: not satisfied

====

biological target: Human GPR120 short form (Homo sapiens, UniProt Q5NUL3); construct: expressed in transfected cells; assay: Human GPR120 calcium flux assay (FLIPR), Procedure Calcium A; format: cell-based; conditions: HEK-293 cells expressing human GPR120 short form, 2500 cells/well; read-out: GPR120 Ca2+ Assay A EC50
Assign a class from recorded EC50; defined classes: low interval (below 100 nM), middle interval (100 nM to below 200 nM), high interval (200 nM or more)

| Compound | Assayed target | Group label |
| --- | --- | --- |
| Cc1ccc(-c2snc(C(F)(F)F)c2COc2ccc(CCC(=O)O)c(C(F)(F)F)c2)c(F)c1 [Cpd 221] | Human GPR120 short form (Homo sapiens, UniProt Q5NUL3) | high interval |
| CCc1ccc(-c2nsc(C(F)(F)F)c2COc2c(F)cc(CCC(=O)O)cc2F)cc1 [Cpd 70] | Human GPR120 short form (Homo sapiens, UniProt Q5NUL3) | low interval |
| O=C(O)CCc1ccc(OCc2c(C(F)(F)F)nsc2-c2ccc(Cl)cc2)cc1Cl [Cpd 208] | Human GPR120 short form (Homo sapiens, UniProt Q5NUL3) | high interval |

stdin: Exam item: assign CCc1ccc(-c2nsc(C(F)(F)F)c2COc2ccc(CC(C)C(=O)O)cc2F)cc1 (centres unmarked) [Cpd 105] to the correct category.
stdout: low interval

stdin: How about this compound: CCc1ccc(-c2sccc2COc2c(F)cc(CCC(=O)O)cc2F)cc1 [Cpd 52]
stdout: middle interval

stdin: Another: Cc1c(CCC(=O)O)ccc(OCc2c(-c3ccc(C(C)F)cc3)nsc2C(F)(F)F)c1C (centres unmarked) [Cpd 146]
stdout: middle interval

stdin: Now give it for O=C(O)CCc1cc(F)c(OCc2csnc2-c2ccc(Cl)s2)c(F)c1 [Cpd 202] too.
stdout: high interval

stdin: Consider next the compound O=C(O)CCc1cc(F)c(OCc2csnc2-c2ccc(Cl)cc2)c(F)c1 [Cpd 179] in the same way.
stdout: high interval

stdin: Now try O=C(O)CCc1cc(F)c(OCc2c(C3=CCCC3)csc2C(F)(F)F)c(F)c1 [Cpd 31] .
stdout: low interval

====

target: Human GPR120 short form (Homo sapiens, UniProt Q5NUL3); construct: expressed in transfected cells; test: Human GPR120 calcium flux assay (FLIPR), Procedure Calcium B; assay type: cell-based; settings: HEK-293 cells expressing human GPR120 short form, 4200 cells/well; read-out: GPR120 Ca2+ Assay B EC50
Value type: EC50 (nM)
Enter your answer as a number in nM; do not include the unit.

| Compound | Experimental result |
| --- | --- |
| Cc1ccccc1-c1snc(Cl)c1COc1ccc(CCC(=O)O)c(C(F)(F)F)c1 | 349 |
| COc1ccccc1-c1snc(Cl)c1COc1ccc(CCC(=O)O)c(C(F)(F)F)c1 | 3430 |
| CCc1ccc(-c2nsc(C(C)C)c2COc2ccc(CCC(=O)O)c(C)c2C)cc1 | 923 |
| Cc1c(CCC(=O)O)ccc(OCc2c(-c3ccc(C#N)cc3)nsc2C(F)(F)F)c1C | 379 |
| Cc1ccc(-c2snc(Cl)c2COc2c(F)cc(CCC(=O)O)cc2F)c(F)c1 | 45 |
| O=C(O)CCc1cc(F)c(OCc2c(-c3ccc(Cl)cn3)nsc2C(F)(F)F)c(F)c1 | 108 |
| CC(Cc1ccc(OCc2c(-c3ncc(Cl)cc3F)nsc2C(F)(F)F)c(F)c1)C(=O)O (centres unmarked) | 289 |

Then this compound:
stdin: # input compound: O=C(O)CCc1cc(F)c(OCc2c(-c3ccns3)nsc2C(F)(F)F)c(F)c1 ; wanted: its EC50
stdout: 573

====

target: Human GPR120 short form (Homo sapiens); construct: expressed in transfected cells; experiment: Human GPR120 calcium flux assay (FLIPR), Procedure Calcium A; assay type: cell-based; conditions: HEK-293 cells expressing human GPR120 short form, 2500 cells/well; read-out: GPR120 Ca2+ Assay A EC50
Value type: EC50 (nM)
Record the value in nM, omitting the unit from your answer.

| Compound | Unit label | EC50 |
| --- | --- | --- |
| Cc1ccc(-c2nsc(C(F)(F)F)c2COc2c(F)cc(CCC(=O)O)cc2F)cc1 | nM | 104 |
| Cc1c(CCC(=O)O)ccc(OCc2c(-c3ccc(F)c(F)c3)nsc2C(F)(F)F)c1C | nM | 156 |
| Cc1ccc(-c2nsc(C(F)(F)F)c2COc2ccc(CCC(=O)O)c(C)c2C)cc1F | nM | 89 |
| OCCCc1cc(F)c(OCc2c(C3CCCC3)nsc2C(F)(F)F)c(F)c1 | nM | 148 |
| CCc1ccc(-c2sccc2COc2ccc(CCC(=O)O)c(C)c2C)cc1 | nM | 170 |

stdin: Missing value: EC50, Human GPR120 short form (Homo sapiens), entry Cc1c(CCC(=O)O)ccc(OCc2csnc2-c2ccc(Br)cc2)c1C . Fill in?
stdout: 225

stdin: Same question, O=C(O)CCc1cc(F)c(OCc2c(-c3c(F)cc(Cl)cc3F)nsc2C(F)(F)F)c(F)c1 this time
stdout: 73

stdin: Param item: O=C(O)CCc1ccc(OCc2c(-c3ccc(Cl)cc3)nsc2C(F)(F)F)cc1C(F)(F)F
stdout: 236

stdin: Subsequent entry: COc1ccc(-c2csc(C(F)(F)F)c2COc2c(F)cc(CCCO)cc2F)cn1
stdout: 101

stdin: Please give the result for O=C(O)C1CC1c1ccc(OCc2c(-c3ccc(Cl)cc3)nsc2C(F)(F)F)cc1 (stereo not drawn) too.
stdout: 530
